Tested on: MCF7 breast
Test: NCI tumour cell line growth inhibition, 48 h
observed_property: TGI

These recorded examples may help you get a feel for the data.
{"molecule": "S=C1N(c2ccc(Cl)cc2)C2=C(N=Nc3ccccc3)C(=Nc3ccccc3S2)N1c1ccccn1", "test_target": "MCF7 breast", "val": "15.2 µM"}
{"molecule": "N#CS/C(Cl)=C(/C(Cl)=C(Cl)Cl)[N+](=O)[O-]", "test_target": "MCF7 breast", "val": "> 100 µM"}
{"molecule": "O=C(Nc1ncc(Cc2ccccc2Cl)s1)c1ccc2c(c1)OCCO2", "test_target": "MCF7 breast", "val": "> 100 µM"}
{"molecule": "C=C1C(=O)C23CC1C[C@H](OC(C)=O)C2C1(C)C(OC(C)=O)C[C@H](O)C(C)(C)[C@H]1C(O)[C@@H]3OC(C)=O (stereo not given in full)", "test_target": "MCF7 breast", "val": "19.4 µM"}
{"molecule": "CCOC(=O)n1cncc1CC(NC(=O)Cc1c(C(=O)C=C(C)C)[nH]c2ccccc12)C(=O)OC (stereo not given)", "test_target": "MCF7 breast", "val": "84.1 µM"}

Sample N=C1C(=N)c2ccccc2-c2ccccc21 , system: MCF7 breast. Its TGI is 2.27 µM

Sample COc1ccc(-c2nc(-c3ccccc3)c(-c3ccccc3)n2C2CC2)cc1OC1CCCC1 , system: MCF7 breast. Its TGI is > 165 µM

----------
Each item that follows carries a reported TGI.
System: DMS 114 small cell lung
Test: NCI tumour cell line growth inhibition, 48 h

These recorded examples may help you get a feel for the data.
{"compound": "CCOP(=O)(OCC)/C(C#N)=C/c1ccco1", "observed_property": "TGI", "val": "> 100 µM"}
{"compound": "CC(C)(C)[C@H]1CO[C@]2(C)[C@@H]3C[C@@H]3C(=O)N12", "observed_property": "TGI", "val": "> 100 µM"}
{"compound": "CCCCc1c2c(nc3c1CCC/C3=C\\c1ccccc1)C(=O)C(CN(C)C)CC2 (centres undefined)", "observed_property": "TGI", "val": "34.8 µM"}

# TGI (compound: O=S1(=O)C[C@@H](O)[C@H](O)CS1 ) is > 100 µM

----------
Each item that follows carries a reported TGI.
System: PC-3 prostate
Assay: NCI tumour cell line growth inhibition, 48 h

Sample Cc1c2c(n(CCc3ccccc3)c1C)NN=C(C#N)S2(=O)=O , system: PC-3 prostate. Its TGI is > 100 µM

Sample O=C(NOCC1CC1)c1ccc(F)c(F)c1Nc1ccc(I)cc1Cl , system: PC-3 prostate. Its TGI is 16.5 µM

Sample CC1=C(OC2OC(CO)C(O)C(O)C2O)C(=O)C[C@H]2C1=CC[C@@H]1[C@@]2(C)C(=O)C[C@]2(C)[C@@H]([C@@](C)(O)C(=O)CCC(C)(C)O)[C@H](O)C[C@@]12C (stereo partly drawn) , system: PC-3 prostate. Its TGI is > 100 µM

----------
Tested on: OVCAR-4 ovarian
Experiment: NCI tumour cell line growth inhibition, 48 h; in the data active means GI50 below about 0.43 µM; inactive means the rest
# valid calls are yes (1) for active, no (0) for inactive; nothing else

Record excerpt, results attached:
{"compound": "COc1ccc(-c2nc(-c3cn(C)c4ncccc34)cs2)cc1", "assigned_category": "no (0)"}
{"compound": "COc1cccc(-c2cc(=O)c3cc(N)ccc3[nH]2)c1", "assigned_category": "no (0)"}
{"compound": "O=C([CH-]C(=O)c1ccccc1)c1ccccc1.O=C([CH-]C(=O)c1ccccc1)c1ccccc1.[Nd+3].[OH-].[OH3+]", "assigned_category": "no (0)"}

## Task Call for entry Fc1ccc(-c2ccc(-c3nnc(-c4cc(F)c(Cl)cc4Cl)o3)o2)cc1Cl :
## Result no (0)

## Task Call for entry C=C(CN1CCc2ccccc2C1)c1ccc(C(=O)Nc2ccc(N)cc2)cc1 :
## Result no (0)

## Task Call for entry Oc1cc2cccc[n+]2c2cccc(Cl)c12 :
## Result no (0)

## Task Call for entry Nc1ccccc1C#C/C=C\C#Cc1ccc(Cl)cc1Cl :
## Result no (0)

## Task Call for entry Cc1[nH]c(/C=C2\C(=O)Nc3ccc(F)cc32)c(C)c1C(=O)NC[C@H](O)CN1CCOCC1 :
## Result no (0)

## Task Call for entry Cc1ccc2c(=O)c3cccc(CC(=O)O)c3oc2c1C :
## Result no (0)

## Task Call for entry COc1ccc2[nH]c(Cl)c(/C=C3/C(=O)N(C)c4ccccc43)c2c1 :
## Result no (0)

## Task Call for entry COc1cc2c(/C=C3/C(=O)Nc4ccccc43)c(Cl)n(Cc3ccccc3[N+](=O)[O-])c2cc1C :
## Result no (0)

## Task Call for entry CCN(CC)CCOc1ccc(/C=C2\CC3C4CC=C5C[C@@H](N6CCCC6)CC[C@]5(C)C4CC[C@]3(C)[C@H]2O)cc1OC (stereo partly drawn) :
## Result no (0)

## Task Call for entry C/C=C(\C)C(=O)O[C@H]1C=CC(=O)O[C@H]1CNC(=O)[C@H](C)O :
## Result no (0)

## Task Call for entry N.N.NC(CS)C(=O)[O-].NC(CS)C(=O)[O-].[Pt+4] (stereo not drawn) :
## Result no (0)

## Task Call for entry O=C(Nc1ncc(Cc2ccccc2Cl)s1)c1ccc2c(c1)OCCO2 :
## Result no (0)

## Task Call for entry O=C(NC(=S)Nc1ccc(Cl)cc1)c1ccccc1 :
## Result no (0)

## Task Call for entry S=C(Nc1ccc(Cl)cc1)Nc1ccc(Cl)cc1 (tested in a mixture with another compound) :
## Result no (0)

## Task Call for entry S=C(N/N=C/c1ccccn1)Nc1ccccn1 :
## Result no (0)

## Task Call for entry CC(NNC(=S)N1CCCCCC1)c1ccc2ccccc2n1 (stereo not drawn) :
## Result yes (1)

## Task Call for entry CCN(CC)CCCCCCCNc1c2ccc(Cl)cc2nc2ccc(OC)cc12 :
## Result no (0)

## Task Call for entry O=C(NOCC1CC1)c1ccc(F)c(F)c1Nc1ccc(I)cc1Cl :
## Result no (0)

## Task Call for entry S=C(Nc1ccc(Cl)cc1)Nc1ccc(-c2nc3ccccc3[nH]2)cc1 :
## Result no (0)

## Task Call for entry C[C@H]1CCC/C=C/[C@@H]2C[C@H](O)C[C@H]2[C@H](O)[C@@H](S(=O)CCN(C)C)CC(=O)O1 (stereo partly drawn) :
## Result yes (1)

Entry source: PubChem BioAssay (NCI)
